Test system: UACC-62 melanoma
Test: NCI tumour cell line growth inhibition, 48 h
I'd be grateful if you could share measured GI50 for these entries.

Input: I am curious: what GI50 value has been reported for `[O-][Cl+3]([O-])([O-])[O-].[O]=[Ru]=[O].c1ccc(-c2ccccn2)nc1.c1ccc(-c2ccccn2)nc1` ?
Output: > 100 µM

Input: What does the data say about its GI50? Entry: `O=C(Nc1cccc(C(F)(F)F)c1)Nc1cccc(C(F)(F)F)c1`
Output: 0.702 µM

Input: What measured GI50 goes with `O=C1NC(=NCc2ccccc2)S/C1=C\c1ccc2ncccc2c1` ?
Output: > 25 µM

Input: Would you mind telling me what GI50 value was observed for `CC1(C)[C@@H](NOCCCN)CC[C@]2(C)[C@H]3C(=O)C=C4[C@@H]5C[C@](C)(C(=O)O)CC[C@]5(C)CC[C@@]4(C)[C@]3(C)CC[C@@H]12` ?
Output: 3.85 µM

====

System: SNB-19 CNS
Test: NCI tumour cell line growth inhibition, 48 h; in the data active means GI50 below about 0.43 µM; inactive means the rest
Valid outcomes are listed here; reply with one: TRUE (active), FALSE (inactive)

Input: Tell me the assay call for `CC1(C)[C@@H](NOCCCN)CC[C@]2(C)[C@H]3C(=O)C=C4[C@@H]5C[C@](C)(C(=O)O)CC[C@]5(C)CC[C@@]4(C)[C@]3(C)CC[C@@H]12` please.
Output: FALSE

Input: Per the records of this test, what outcome belongs to `CC(C)[C@@H]1NC(=O)[C@]2(C)CSC(=N2)c2ccnc(c2)CNC(=O)C[C@@H](/C=C/CCS)OC1=O` ?
Output: TRUE

Input: For Cc1ccc(NC2=C3CCCCC3OC2=O)cc1 (centres undefined) , what call appears in the results of this test?
Output: FALSE

Input: Could you kindly confirm the outcome this assay logged for COc1cc2c(cc1OC)-c1cc(OC)c(OC)cc1C(CN(C)C)C2 (centres undefined) ?
Output: FALSE

Input: Could you please tell me the result logged for `COc1ccccc1NC(=O)c1cc2cc(Br)ccc2cc1O` in this assay?
Output: FALSE

Input: GET /call?item= `CCCCCCOc1ccc(/C=N/Nc2cc(C)nc3ccc(Cl)cc23)cc1` returns the recorded outcome of this test.
Output: FALSE

Input: Please share the test call associated with `Cc1cc2c(cc1C)[n+](=O)c(C(=O)c1ccccc1)c(C(F)F)n2[O-]` .
Output: FALSE

Input: Tell me the recorded outcome of this test for `Fc1cc(-c2nnc3n2N=C(c2ccc(Cl)cc2)CS3)c(Cl)cc1Cl` .
Output: FALSE

Input: Please indicate how the test categorized `CC(=C(c1ccc(OCCN2CCCCC2)cc1)c1ccc(OCCN2CCCCC2)cc1)c1ccc(Cl)cc1` .
Output: FALSE

====

System: NCI-H226 lung
Assay: NCI tumour cell line growth inhibition, 48 h
For each entry below, report its GI50 value.

Input: Which value of GI50 has been reported for `CC[C@@H](c1ccc(O)c(O)c1)[C@@H](CC)c1ccc(O)c(O)c1` in the records?
Output: 21.1 µM

Input: # input compound: `COc1cc(/C=C2\CN(S(=O)(=O)c3ccc(C)cc3)C/C(=C\c3cc(CN4CCCC4)c(O)c(OC)c3)C2=O)cc(CN2CCCC2)c1O` ; wanted: its GI50
Output: 1.63 µM

Input: I have this compound here, `c1ccc(-c2n(Cc3ccc4ccccc4n3)cc[n+]2Cc2ccc3ccccc3c2)cc1` , and I need its recorded GI50.
Output: 1.3 µM

Input: So what does the record say about GI50 for Cc1ccc(NC2=C3CCCCC3OC2=O)cc1 (configuration not stated) ?
Output: 87.1 µM

Input: Quick check: GI50 of `COC(=O)/C=C/c1cc(OC(C)=O)c2c(c1)[C@@H](C(=O)OC)[C@H](c1ccc(OC(C)=O)c(OC(C)=O)c1)O2` ?
Output: 1.71 µM

Input: Record request: GI50 value, item `COc1ccc(CN2C(=O)C(Cl)=C(Nc3cccc(C(F)(F)F)c3)C2=O)cc1`
Output: 2.57 µM

Input: Item under review: `NCCNCCNCCN` . Reported GI50?
Output: > 100 µM

Input: What GI50 value was documented for this compound, `c1ccc(Nc2ncc(-c3ccccc3)o2)cc1` ?
Output: > 25 µM

Input: For the compound `C/C=C/[C@@H]1O[C@@H]2COC(=O)C2=C[C@@H]1O` , what GI50 is on record?
Output: 17.6 µM

Input: Which GI50 value is on record for `O=[N+]([O-])c1cc([N+](=O)[O-])c(C(F)(F)F)cc1NN=C(c1ccc(O)cc1)c1ccc(O)cc1` ?
Output: 4.03 µM

Input: I have this compound here, `COc1cc(-c2nc3sccn3c2-c2ccnc(NCCNS(=O)(=O)c3ccc(F)cc3)n2)ccc1F` , and I need its recorded GI50.
Output: 1.95 µM

Input: // query GI50 value for entry `Cc1nnc2ccnn2c1C`
Output: > 100 µM
